Quick reference for IC50 among some binders
Molecular target: T1, CD38 (human, UniProt P28907 1-300)
T1 construct: whole, on cells; also called cluster of differentiation 38; cyclic ADP ribose hydrolase
Test: ternary binding, flow cytometry: PE-labelled human IgG1k recruited to Daudi cells
Method: Various technologies can be utilized to assess and/or characterize recruitment of antibodies to target cells, e.g., cancer cells. One such assay is a ternary binding assay. An exemplary protocol is described herein. […] Samples were analyzed on a BD FacsCelesta. Mean fluorescence was analyzed using Graphpad Prism and curves were fit using log(inhibitor) vs. response—Variable slope (four parameters).
Bridges are numbered along the chain shown (N, C = ends). Roman numbers before positions name the chains, in order. Where no end group is shown, it is not given here. [ ]: non-standard residue; d: D form. branched linker from compound 8 (carries γGlu-hexadecanedioic acid) = not defined here; Bip = N[C@@H](Cc1ccc(-c2ccccc2)cc1)C(=O)O; Ahp(2) = CCCCC[C@H](N)C(=O)O
Please respond with the number in nM and leave the unit unwritten.

Examples from the recorded data:
binder="I-27 (not fully specified; Cys2-Cys12 disulfide; N-terminus extended by D-Glu(side chain amide of 12-aminododecanoic acid)-PEG6-; X3 and X11 = Ahp ((S)-2-aminoheptanoic acid), X10 = Bph (4-biphenylylalanine); N-terminal -C(O)CH2- (from 2-bromoacetic acid) thioether-linked to S of Cys13; C-terminus carries PEG10 linker) peptide 1: ARXYHDGVLXXDC peptide 2: DCAWHLGELVWCT" measurement_name=IC50 result=6
binder="I-39 (Cys2-Cys12 disulfide; N-terminus extended by hydrazinecarbonyl (urea from Boc-NH-NH2 and CDI)-PEG6-; X3 and X11 = Ahp ((S)-2-aminoheptanoic acid), X10 = Bph (4-biphenylylalanine); N-terminal -C(O)CH2- (from 2-bromoacetic acid) thioether-linked to S of Cys13; C-terminus carries PEG10 linker) peptide 1: ARXYHDGVLXXDC peptide 2: DCAWHLGELVWCT" measurement_name=IC50 result=3.3

Any idea what its IC50 is? The binder is I-33 (Cys2-Cys12 disulfide; N-terminus extended by PEG8-; X3 and X11 = Ahp ((S)-2-aminoheptanoic acid), X10 = Bph (4-biphenylylalanine); N-terminal -C(O)CH2- (from 2-bromoacetic acid) thioether-linked to S of Cys13; C-terminus carries PEG8 linker) peptide 1: ARXYHDGVLXXDC peptide 2: DCAWHLGELVWCT
9.3

What do we get for I-32 (disulfide II:3-II:13; not fully specified (N-terminus); reading uncertain; also: N-terminus of chain 2 amide-bonded to the branched linker (one conjugate), thioether at chain A 13 to a chain's N-terminus via -C(O)-CH2- (from 2-bromoacetic acid), One covalent conjugate) peptide 1: {‑C(O)CH2‑}-AR[Ahp(2)]YHDGVL[Bip][Ahp(2)]DC-{branched linker from compound 8 (carries γGlu-hexadecanedioic acid)} peptide 2: DDCAWHLGELVWCT-NH2 ?
88

What do we get for I-40 (disulfide II:3-II:13; also: C-terminal Gly of chain 1 amide-bonded to N-terminal Gly of chain 2 (one chain), thioether at chain A 13 to a chain's N-terminus, The section is headed I-40, its product is called compound 523; also called compound 523) peptide 1: Ac-AR[Ahp(2)]YHDGVL[Bip][Ahp(2)]DCG peptide 2: GDCAWHLGELVWCT-NH2 ?
50
